Parameter GI50: see the listing below.
# System: HOP-62
# assay details: NCI tumour cell line growth inhibition, 48 h
Calls of active or inactive are those of the source. Rule as the data show it: active = GI50 up to about 1.1 µM and inactive = higher. Where a SMILES comes first, the peptide text is derived from it. The star is where a group is joined. Boc = CC(C)(C)OC(=O)*; nBu = CCCC*
parameter measured: GI50

compound	result
CC1(C)CC(=O)C2=C(C1)c1c(ccc3ccccc13)NC2c1cn(Cc2ccc(Cl)cc2)c2ccccc12 (centres undefined)	40.9 µM (inactive)
CCOC(=O)/C=C/C1OC(C)(C)OC1/C=C/C(=O)OCC (centres undefined)	23.7 µM (inactive)
CC1C2=CC=C(O2)C(C)(C)C2=CC=C(O2)C(C)(C)C2=CC=C(O2)C(C)(C)C2=CC=C1O2	> 100 µM (inactive)
C(=N\c1ccc(-c2cc(-c3ccccc3)nc3ccc4ccccc4c23)cc1)/c1ccccc1	20.9 µM (inactive)
CC(C)(C)OC(=O)N1C(C2=COc3ccccc3O2)=COc2cccnc21	1.85 µM (inactive)
COc1ccc(/C=C2\N=C(N3CCCCC3)NC2=O)cc1	> 100 µM (inactive)
O=C(CN(C(=O)OC12CC3CC(CC(C3)C1)C2)C(=O)OC12CC3CC(CC(C3)C1)C2)Oc1ccc([N+](=O)[O-])cc1	> 100 µM (inactive)
Cc1cc(=O)n2nc(CN3CCCCC3)sc2n1	> 100 µM (inactive)
CCCCOc1ccc(CC(NC(=O)OC(C)(C)C)C(=O)NC(C)C(=O)NC(Cc2ccccc2)C(=O)NCC(N)=O)cc1 (centres undefined) (Boc-Y(nBu)AFG-NH2; configuration not given here)	> 100 µM (inactive)

----------
# Test system: BT-549
# assay details: NCI tumour cell line growth inhibition, 48 h
Active and inactive are the calls of the source. Rule as the data show it: active = GI50 up to about 1.1 µM and inactive = higher. Bridge positions count the residues as written; N and C are the ends. Square brackets hold non-standard residues; d marks the D form. Peptide text beside a SMILES is read from it. I, II: the chains in the order shown. * marks the point of attachment. Quinoxaline2carbonyl = O=C(c1cnc2ccccc2n1)*; NMeV = CN[CH](C(=O)O)C(C)C; NMeC = CN[CH](CS)C(=O)O
Labels: active, inactive

compound	tested system	category label
COc1ccc(-n2c(=O)n(C)c(=O)n2-c2c(C)c(C)c(C)c(C)c2C)cc1	BT-549	inactive
NC(=O)c1cc2ccc(O)cc2o/c1=N/NC(=O)c1ccccc1	BT-549	inactive
NC(Cc1cccc([N+](=O)[O-])c1)C(=O)O (stereo not drawn)	BT-549	inactive
O=C1Nc2ccccc2SC1=C(C(=O)c1ccccc1)C(=O)c1ccccc1	BT-549	inactive
Cc1ccc2[nH]c3c(C)c4cc[n+](C)cc4c(C)c3c2c1	BT-549	active
CC1=NOC(=O)/C1=C/c1ccc2c(c1)OCO2	BT-549	inactive
CC(C)(C)OC(=O)N1CCCC1C(=O)NC(c1ccccc1)c1ccccc1 (stereo not drawn)	BT-549	inactive
CC1(C)CC2(C)CC1CC2O (stereo not drawn)	BT-549	inactive
CC1NC(=O)C(NC(=O)c2cnc3ccccc3n2)COC(=O)C(C(C)C)N(C)C(=O)C2CSSCC(C(=O)N(C)C(C(C)C)C(=O)OCC(NC(=O)c3cnc4ccccc4n3)C(=O)NC(C)C(=O)N2C)N(C)C1=O (stereo not drawn) (I: Quinoxaline2carbonyl-SA[NMeC][NMeV] / II: Quinoxaline2carbonyl-SA[NMeC][NMeV]; ester I:1-II:C, I:C-II:1; disulfide I:3-II:3; configuration not given here)	BT-549	active
C/C(=N/Nc1nc(C)cc(O)n1)C(=O)O	BT-549	inactive
CCN1CCN(c2nc3ccccc3nc2C(=O)c2ccc(OC)c(OC)c2)CC1	BT-549	inactive
O=C1NC(c2ccccc2)C1N(Cc1ccccc1)Cc1ccccc1 (stereo not drawn)	BT-549	inactive
CSc1nc(N)c(NC2OC(CO)C(O)C2O)c(=O)[nH]1 (stereo not drawn)	BT-549	inactive
Nc1nc(N)c(/N=N/c2ccc(C(=O)O)c(O)c2)c(N)n1	BT-549	inactive
O=C(/C=C/c1cccs1)c1ccc(C(=O)/C=C/c2cccs2)cc1	BT-549	inactive
O=C1Nc2ccccc2/C1=N/Nc1ccc([N+](=O)[O-])cc1	BT-549	inactive
COc1ccc(/C=C2\N=C(N3CCCCC3)NC2=O)cc1	BT-549	inactive
C1COC(NC(C2CC2)C2CC2)=N1	BT-549	inactive
Cc1ccc(/N=N/N(C)C(=O)C(C)N)cc1 (stereo not drawn)	BT-549	inactive
COCCOCCOCCOc1ccc(C(C#N)N(CCc2ccccc2)C(=O)c2cc(C(=O)N(CCc3ccccc3)C(C#N)c3ccc(OCCOCCOCCOC)cc3)cc(C(=O)N(CCc3ccccc3)C(C#N)c3ccc(OCCOCCOCCOC)cc3)c2)cc1 (stereo not drawn)	BT-549	inactive
CC1=C(C(=O)OC(C)C)C(c2ccccc2[N+](=O)[O-])C(C(=O)OC(CO[N+](=O)[O-])CO[N+](=O)[O-])=C(C)N1 (stereo not drawn)	BT-549	inactive
O=C(CN(C(=O)OC12CC3CC(CC(C3)C1)C2)C(=O)OC12CC3CC(CC(C3)C1)C2)Oc1ccc([N+](=O)[O-])cc1	BT-549	inactive
CC(=C(C(N)=O)C(N)=O)C1C=C(c2cccs2)CC(c2ccc(Cl)cc2)=C1O (stereo not drawn)	BT-549	inactive
COc1ccc(C2=NN(C(=O)c3cccnc3)C(O)(c3cc(F)c(Cl)cc3Cl)C2)cc1OC (stereo not drawn)	BT-549	inactive
CC1(C)C(C(=O)OC(C#N)c2cccc(OCC(=O)OCc3ccccc3)c2)C1(C)C (stereo not drawn)	BT-549	inactive
COC1C(O)C(C)OC(O[C@@H]2C[C@H]3CC[C@@H]4[C@H](CC[C@]5(C)[C@@H](C6=CC(=O)OC6)CC[C@]45O)[C@@]3(C)[C@H](O)C2)C1O (stereo partly drawn)	BT-549	active
CO[C@@]12C[C@@H](C)C3=CCC(C)=C3CC1=C(C)C(=O)O2	BT-549	inactive
CCN(CC)Cc1sc2nc3ccccc3n2c1-c1ccc(OC)cc1	BT-549	inactive
C[C@]12CC(c3ccccc3O1)C(C(N)=O)C(=O)N2 (stereo partly drawn)	BT-549	inactive
CN(NC(=O)c1ccco1)C1=NCCN1	BT-549	inactive
C/C=C(\C)C(=O)O[C@@H]1CC(C)(C)CC2C3=CCC4[C@]56CC[C@](O)(OC5)C(C)(C)C6CC[C@@]4(C)C3(C)CC[C@]21C(=O)O (stereo partly drawn)	BT-549	inactive
O=C(CN1CCCC1)Nc1ccc2c(c1)C1Oc3ccccc3CC1CO2 (stereo not drawn)	BT-549	inactive
OC1=C(c2ccccc2)C2=NCCN2c2ccccc21	BT-549	inactive
Cc1ccc(/C=C2\Cc3cccc(C)c3C2=O)c(C(=O)O)c1	BT-549	inactive
O=c1[nH]nc(Cc2ccccc2)n1/N=C/c1ccc([N+](=O)[O-])cc1	BT-549	inactive
CCCCCCSC[C@H](OC(C)=O)[C@@H](OC(C)=O)[C@@H](OC(C)=O)[C@@H](COC(C)=O)OC(C)=O	BT-549	inactive
C=CC/N=C(\S)Nc1sc2c(c1C(=O)OCC)CC(C)CC2 (stereo not drawn)	BT-549	inactive
O=C(CC(c1ccccc1)c1c(O)c2ccccc2oc1=O)c1ccccc1 (stereo not drawn)	BT-549	inactive
